What α-2A, percent of control-specific binding was measured for each of the following?
- Target desc: alpha2A receptor (Homo sapiens, UniProt P08913)
- Construct: host or cells: CHO cells (membrane preparation)
- Sequence (P08913 whole entry): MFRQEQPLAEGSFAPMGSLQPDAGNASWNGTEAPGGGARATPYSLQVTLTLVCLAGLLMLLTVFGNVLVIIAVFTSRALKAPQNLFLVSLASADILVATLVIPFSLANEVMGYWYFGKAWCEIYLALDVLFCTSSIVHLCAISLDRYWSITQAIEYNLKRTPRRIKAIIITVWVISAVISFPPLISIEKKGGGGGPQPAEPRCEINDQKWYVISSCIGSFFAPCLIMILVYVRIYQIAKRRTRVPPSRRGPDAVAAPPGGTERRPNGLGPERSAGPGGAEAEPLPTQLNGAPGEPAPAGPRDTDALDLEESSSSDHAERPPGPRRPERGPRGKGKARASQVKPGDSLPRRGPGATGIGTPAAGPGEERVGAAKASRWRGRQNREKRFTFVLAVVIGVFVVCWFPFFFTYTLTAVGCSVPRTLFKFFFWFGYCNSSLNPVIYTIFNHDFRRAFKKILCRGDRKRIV
- Assay notes: Eurofins Cerep competition binding assay at alpha2A receptor
- Measurement context: 10 μM test ligand, [3H]RX 821002, recombinant receptor from CHO cells
State the value, then name its unit.

Recorded α-2A, percent of control-specific binding, per entry:
[[record]]
compound = "CNC(C)Cc1ccc2c(c1)OCO2 (stereo not shown)"
endpoint_result = "27%"

[[record]]
compound = "COc1cc(CC(C)N)c(OC)cc1Br (stereo not shown)"
endpoint_result = "66%"

[[record]]
compound = "COc1cc(CCN)c(OC)cc1Br"
endpoint_result = "88%"


Entry CCOc1c(OC)cc(CCN)cc1OC , α-2A, percent of control-specific binding reported as 45%
